System: red blood cells
Type: cell-based
STUDY_CONDITIONS: human, 35 min, 0.1 mg/mL, pH 7.4
MEASURED_PARAMETER: % lysis of RBC

Quick one: % lysis of RBC of CC(=O)Nc1nc2ccc(-c3cc(C(F)(F)F)cc(C(F)(F)F)c3)cc2s1 ?
47.089 ± 0.130%

Quick one: % lysis of RBC of CC(=O)Nc1nc2ccc(-c3ccc(C)s3)cc2s1 ?
44.425 ± 0.181%

Quick one: % lysis of RBC of CC(=O)Nc1nc2ccc(-c3ccc(C)cc3)cc2s1 ?
44.179 ± 0.157%

Quick one: % lysis of RBC of CC(=O)Nc1nc2ccc(-c3cc(C)cc(C)c3)cc2s1 ?
40.661 ± 0.216%

Quick one: % lysis of RBC of CC(=O)Nc1nc2ccc(-c3cc(C#N)cc(C(F)(F)F)c3)cc2s1 ?
44.063 ± 0.314%

Quick one: % lysis of RBC of CC(=O)Nc1nc2ccc(-c3ccc(F)c(Cl)c3)cc2s1 ?
43.614 ± 0.157%

Quick one: % lysis of RBC of COc1ccc(-c2ccc3nc(NC(C)=O)sc3c2)cc1 ?
44.078 ± 0.279%

Quick one: % lysis of RBC of CC(=O)Nc1nc2ccc(-c3ccccc3)cc2s1 ?
42.123 ± 0.479%

---

EXPERIMENT: Nitric oxide scavenging assay (Garrat method, Griess reagent)
MEASURED_PARAMETER: IC50 (µg/mL) nitric oxide scavenging
Quick reminder: number only, in µg/mL, skip the unit.

Quick one: IC50 (µg/mL) nitric oxide scavenging of O=C1O[C@H]([C@@H](O)CO)C(O)=C1O [Ascorbic acid, reference compound] ?
50.43

Quick one: IC50 (µg/mL) nitric oxide scavenging of CC(=O)Nc1nc2ccc(-c3ccc(C)cc3)cc2s1 [Compound 3b] ?
26.4

Quick one: IC50 (µg/mL) nitric oxide scavenging of CC(=O)Nc1nc2ccc(-c3ccc(C)s3)cc2s1 [Compound 3e] ?
37.1

Quick one: IC50 (µg/mL) nitric oxide scavenging of CC(=O)Nc1nc2ccc(-c3ccc(F)c(Cl)c3)cc2s1 [Compound 3g] ?
39.1

Quick one: IC50 (µg/mL) nitric oxide scavenging of CC(=O)Nc1nc2ccc(-c3ccccc3)cc2s1 [Compound 3a] ?
32.7

Quick one: IC50 (µg/mL) nitric oxide scavenging of CC(=O)Nc1nc2ccc(-c3cc(C)cc(C)c3)cc2s1 [Compound 3h] ?
32.3

---

TESTED_TARGET: UniProtKB P07374
Sequence (P07374 whole entry, looked up): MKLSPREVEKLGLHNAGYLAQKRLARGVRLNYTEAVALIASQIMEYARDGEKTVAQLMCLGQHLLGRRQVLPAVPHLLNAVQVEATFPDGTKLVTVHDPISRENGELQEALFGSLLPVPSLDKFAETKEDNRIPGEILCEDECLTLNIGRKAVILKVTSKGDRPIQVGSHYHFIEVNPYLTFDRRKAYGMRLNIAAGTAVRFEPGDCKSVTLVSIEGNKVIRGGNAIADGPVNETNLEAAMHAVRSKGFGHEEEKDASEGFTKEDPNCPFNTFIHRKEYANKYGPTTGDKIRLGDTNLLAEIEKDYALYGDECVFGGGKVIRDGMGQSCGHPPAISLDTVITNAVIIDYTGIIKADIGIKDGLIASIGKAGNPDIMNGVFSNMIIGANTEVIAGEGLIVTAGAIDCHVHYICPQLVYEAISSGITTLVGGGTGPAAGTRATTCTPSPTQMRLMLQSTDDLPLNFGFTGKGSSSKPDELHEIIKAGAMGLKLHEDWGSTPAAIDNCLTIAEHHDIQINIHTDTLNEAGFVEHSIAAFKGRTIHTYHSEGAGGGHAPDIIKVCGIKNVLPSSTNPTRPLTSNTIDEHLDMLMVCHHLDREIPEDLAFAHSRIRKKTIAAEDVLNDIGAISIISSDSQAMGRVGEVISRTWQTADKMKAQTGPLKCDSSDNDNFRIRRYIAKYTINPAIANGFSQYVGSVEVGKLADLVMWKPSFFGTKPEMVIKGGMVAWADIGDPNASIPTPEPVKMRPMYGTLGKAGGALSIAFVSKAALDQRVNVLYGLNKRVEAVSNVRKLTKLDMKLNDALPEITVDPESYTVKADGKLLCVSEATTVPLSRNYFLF
EXPERIMENT: biochemical
Assay type: biochemical
STUDY_CONDITIONS: IC50 (µg/mL), urease inhibition, in vitro
MEASURED_PARAMETER: pIC50
Scale for pIC50: -log10 of concentration given in mol/L; no unit attached.

Query the reported pIC50 for UniProtKB P07374; item: CC(=O)Nc1nc2ccc(-c3ccc(C)s3)cc2s1
4.22

Query the reported pIC50 for UniProtKB P07374; item: CC(=O)Nc1nc2ccc(-c3ccccc3)cc2s1
4.16

Query the reported pIC50 for UniProtKB P07374; item: CC(=O)Nc1nc2ccc(-c3ccc(C)cc3)cc2s1
4.23

Query the reported pIC50 for UniProtKB P07374; item: CC(=O)Nc1nc2ccc(-c3cc(C#N)cc(C(F)(F)F)c3)cc2s1
4.27

Query the reported pIC50 for UniProtKB P07374; item: COc1ccc(-c2ccc3nc(NC(C)=O)sc3c2)cc1
4.24

Query the reported pIC50 for UniProtKB P07374; item: CC(=O)Nc1nc2ccc(-c3ccc(F)c(Cl)c3)cc2s1
4.23

Query the reported pIC50 for UniProtKB P07374; item: CC(=O)Nc1nc2ccc(-c3cc(C(F)(F)F)cc(C(F)(F)F)c3)cc2s1
4.37

Query the reported pIC50 for UniProtKB P07374; item: CC(=O)Nc1nc2ccc(-c3cc(C)cc(C)c3)cc2s1
4.21
